Where these numbers come from: the supplement of paper PMC10849652

- Experimental target: ZBTB21 (UniProt Q9ULJ3)
- Sequence (Q9ULJ3 whole entry, looked up): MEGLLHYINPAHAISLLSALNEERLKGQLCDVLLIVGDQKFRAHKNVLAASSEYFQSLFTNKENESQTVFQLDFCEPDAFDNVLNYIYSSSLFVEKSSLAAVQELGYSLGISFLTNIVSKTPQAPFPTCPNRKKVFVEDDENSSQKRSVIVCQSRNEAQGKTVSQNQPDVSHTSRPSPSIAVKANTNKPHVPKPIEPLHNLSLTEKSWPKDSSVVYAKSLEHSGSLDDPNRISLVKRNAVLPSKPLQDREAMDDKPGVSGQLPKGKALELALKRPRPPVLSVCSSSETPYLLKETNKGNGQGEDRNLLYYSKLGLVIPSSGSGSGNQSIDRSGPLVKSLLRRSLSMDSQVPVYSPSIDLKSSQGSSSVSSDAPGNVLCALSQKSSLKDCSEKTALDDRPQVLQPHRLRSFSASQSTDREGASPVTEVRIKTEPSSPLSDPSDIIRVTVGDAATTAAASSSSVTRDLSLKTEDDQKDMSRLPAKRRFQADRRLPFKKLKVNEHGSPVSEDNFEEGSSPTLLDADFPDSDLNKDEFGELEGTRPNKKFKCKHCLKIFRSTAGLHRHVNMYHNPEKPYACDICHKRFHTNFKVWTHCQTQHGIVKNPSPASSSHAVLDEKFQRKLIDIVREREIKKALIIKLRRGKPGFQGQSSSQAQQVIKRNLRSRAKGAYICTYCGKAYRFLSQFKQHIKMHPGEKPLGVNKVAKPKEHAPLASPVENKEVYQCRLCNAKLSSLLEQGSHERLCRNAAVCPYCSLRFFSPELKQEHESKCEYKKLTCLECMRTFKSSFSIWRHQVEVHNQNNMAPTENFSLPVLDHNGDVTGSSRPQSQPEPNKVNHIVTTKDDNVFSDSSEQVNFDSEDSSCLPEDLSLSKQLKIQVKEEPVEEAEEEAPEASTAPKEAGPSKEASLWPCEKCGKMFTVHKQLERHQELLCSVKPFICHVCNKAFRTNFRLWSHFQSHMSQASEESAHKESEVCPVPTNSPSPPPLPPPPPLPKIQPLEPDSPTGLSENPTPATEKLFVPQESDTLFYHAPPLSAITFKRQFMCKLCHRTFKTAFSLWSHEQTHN
- Test protocol: log2 fold change, soluble protein after heating vs DMSO (PISA); higher = thermal stabilisation; K562 cells, 10 uM, 30 min; active = over 0.2 and 3.5 SD of the protein, either way, in both replicates (recomputed)
Targets with a hit are over-represented here; the source holds about 7,900 in all. About 0.6% of all pairs of compound and target were hits.
Returns one of 1.0 or 0.0; 1.0 when log2 fold change is >= 0.03.

{"Compound": "Cc1nc(Nc2n[nH]c3c2CN(C(=O)N[C@H](CN(C)C)c2ccccc2)C3(C)C)c2sccc2n1", "Experimental target": "ZBTB21 (UniProt Q9ULJ3)", "Category label": 0.0}
{"Compound": "Cc1nc(Nc2ncc(C(=O)Nc3c(C)cccc3Cl)s2)cc(N2CCN(CCO)CC2)n1 [dasatinib]", "Experimental target": "ZBTB21 (UniProt Q9ULJ3)", "Category label": 0.0}
{"Compound": "CS(=O)(=O)CCNCc1ccc(-c2ccc3ncnc(Nc4ccc(OCc5cccc(F)c5)c(Cl)c4)c3c2)o1 [lapatinib]", "Experimental target": "ZBTB21 (UniProt Q9ULJ3)", "Category label": 1.0}
{"Compound": "CC[C@H](C)[C@H](NC(=O)[C@H]([C@@H](C)CC)N(C)C(C)=O)C(=O)N[C@H](C(=O)N[C@@H](CC(C)C)C(=O)[C@@]1(C)CO1)[C@@H](C)O [epoxomicin]", "Experimental target": "ZBTB21 (UniProt Q9ULJ3)", "Category label": 0.0}
{"Compound": "CC(C)N(C[C@H]1O[C@@H](n2cnc3c(N)ncnc32)[C@H](O)[C@@H]1O)[C@H]1C[C@@H](CCc2nc3cc(C(C)(C)C)ccc3[nH]2)C1 [pinometostat]", "Experimental target": "ZBTB21 (UniProt Q9ULJ3)", "Category label": 1.0}
{"Compound": "NC(=O)c1ccc2nc(-c3ccc(Oc4ccc(Cl)cc4)cc3)[nH]c2c1", "Experimental target": "ZBTB21 (UniProt Q9ULJ3)", "Category label": 1.0}
{"Compound": "CCN(CC)Cc1ccc2cc(COC(=O)Nc3ccc(C(=O)NO)cc3)ccc2c1 [givinostat]", "Experimental target": "ZBTB21 (UniProt Q9ULJ3)", "Category label": 0.0}

----------
- Experimental target: YWHAB (UniProt P31946)
- Sequence (P31946 whole entry, looked up): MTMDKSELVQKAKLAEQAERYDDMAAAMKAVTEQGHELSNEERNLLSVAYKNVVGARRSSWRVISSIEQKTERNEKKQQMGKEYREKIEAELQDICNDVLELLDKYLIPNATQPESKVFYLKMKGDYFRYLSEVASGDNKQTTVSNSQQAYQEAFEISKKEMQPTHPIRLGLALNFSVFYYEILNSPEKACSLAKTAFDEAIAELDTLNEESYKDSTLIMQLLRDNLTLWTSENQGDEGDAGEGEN
- Test protocol: log2 fold change, soluble protein after heating vs DMSO (PISA); higher = thermal stabilisation; K562 cells, 10 uM, 30 min; active = over 0.2 and 3.5 SD of the protein, either way, in both replicates (recomputed)
Targets with a hit are over-represented here; the source holds about 7,900 in all. About 0.6% of all pairs of compound and target were hits.
Measured log2 fold change accompanies every entry in the list below.
Assay metric: log2 fold change

{"Compound": "O=C1c2ccccc2-c2n[nH]c3cccc1c23", "Result": "0.001 (inactive)"}
{"Compound": "NCC(=O)Nc1ccc(-n2nc(C(F)(F)F)cc2-c2ccc3c(ccc4ccccc43)c2)cc1", "Result": "-0.007 (inactive)"}
{"Compound": "C/C(=N\\NC(=O)c1cccc(S(=O)(=O)N2CCOCC2)c1)c1cc(Cl)ccc1O", "Result": "0.005 (inactive)"}
{"Compound": "CCN(CCCOc1ccc2c(Nc3cc(CC(=O)Nc4cccc(F)c4)[nH]n3)ncnc2c1)CCOP(=O)(O)O [barasertib]", "Result": "0.003 (inactive)"}
{"Compound": "CC[C@H](C)[C@H](NC(=O)[C@H]([C@@H](C)CC)N(C)C(C)=O)C(=O)N[C@H](C(=O)N[C@@H](CC(C)C)C(=O)[C@@]1(C)CO1)[C@@H](C)O [epoxomicin]", "Result": "0.018 (inactive)"}
{"Compound": "NC(=O)c1cnc(N[C@@H]2CCCC[C@@H]2N)nc1Nc1cccc(-n2nccn2)c1", "Result": "-0.05 (inactive)"}
{"Compound": "O=C(O)c1ccc2c(c1)nc(Nc1cccc(Cl)c1)c1ccncc12 [silmitasertib]", "Result": "-0.014 (inactive)"}
{"Compound": "CC[C@H](C)n1cc(C)c2c(C(=O)NCc3c(C)cc(C)[nH]c3=O)cc(-c3ccc(N4CCNCC4)nc3)cc21", "Result": "0.009 (inactive)"}
{"Compound": "Cc1cc(Nc2cc(CN3CCOCC3)c3nc(C)c(Cc4ccc(Cl)cc4F)n3n2)n[nH]1 [gandotinib]", "Result": "-0.25 (active)"}
{"Compound": "CNC(=O)c1ccccc1Nc1nc(Nc2ccc(N3CCOCC3)cc2OC)ncc1Cl", "Result": "0.019 (inactive)"}
{"Compound": "O=C(CCCCCCC(=O)Nc1ccccc1)NO [vorinostat]", "Result": "-0.02 (inactive)"}
{"Compound": "CS(=O)(=O)N1CCN(Cc2cc3nc(-c4cccc5[nH]ncc45)nc(N4CCOCC4)c3s2)CC1 [pictilisib]", "Result": "0.002 (inactive)"}
{"Compound": "Cn1cc(-c2ccc3c(c2)CCN3C(=O)Cc2cccc(C(F)(F)F)c2)c2c(N)ncnc21", "Result": "0.005 (inactive)"}
{"Compound": "CS(=O)(=O)c1ccc(-c2cnc(N)c(C(=O)Nc3ccccc3)n2)cc1", "Result": "0.017 (inactive)"}
{"Compound": "Cc1cccc(-c2[nH]c(C(C)(C)C)nc2-c2ccc3nccnc3c2)n1", "Result": "0.021 (inactive)"}
{"Compound": "Cc1ccc(C(=O)N(CCCN)[C@@H](c2nc3cc(Cl)ccc3c(=O)n2Cc2ccccc2)C(C)C)cc1 [ispinesib]", "Result": "0.053 (inactive)"}
{"Compound": "CC(C)(O)CC(=O)NCCn1ccc2ncnc(Nc3ccc(Oc4cccc(C(F)(F)F)c4)c(Cl)c3)c21", "Result": "-0.013 (inactive)"}
